method_summary: Clearance in CD1 mouse at 3 mg/kg, iv or 10 mg/kg, po or 30 mg, sc
Assay type: ADME, organism-based
Parameters: unit not given here
condition_info: in vivo
readout_name: clearance
The response must contain the number and no unit.

Solved cases (3 shown):
Cc1cc(-c2cncc(OC[C@@H](N)Cc3c[nH]c4ccccc34)c2)cc2ccncc12
41.7
Nc1cc2cc(-c3cncc(OC[C@@H](N)Cc4c[nH]c5ccccc45)c3)ccc2cn1
202
N[C@H](COc1cncc(-c2ccc3cnc(Cl)cc3c2)c1)Cc1c[nH]c2ccccc12
90

Lab note: next compound to report on.
Lab note: measured clearance of N[C@H](COc1cncc(-c2ccc3c(Cl)nccc3c2)c1)Cc1c[nH]c2ccccc12 was 21.7

---

method_summary: Volume of distribution in CD1 mouse at 3 mg/kg, iv or 10 mg/kg, po or 30 mg, sc
Assay type: ADME, organism-based
condition_info: in vivo, read-out: Vdss
readout_name: Vd (L/kg)
Give the value, in units of L/kg, as a plain number.

The cases that follow already have their Vd on record.
Nc1cc2cc(-c3cncc(OC[C@@H](N)Cc4c[nH]c5ccccc45)c3)ccc2cn1
11.8
N[C@H](COc1cncc(-c2ccc3c(Cl)nccc3c2)c1)Cc1c[nH]c2ccccc12
9.5

molecule N[C@H](COc1cncc(-c2ccc3cnccc3c2)c1)Cc1c[nH]c2ccccc12 , Vd observed: 7

Kindly note the recorded Vd for Cc1cc(-c2cncc(OC[C@@H](N)Cc3c[nH]c4ccccc34)c2)cc2ccncc12 , which is 16.4

Entry N[C@H](COc1cncc(-c2ccc3cnc(Cl)cc3c2)c1)Cc1c[nH]c2ccccc12 — recorded Vd = 15.5

---

subject_of_test: Mitogen-activated protein kinase 1 (Homo sapiens, UniProt P28482)
Sequence (P28482 whole entry): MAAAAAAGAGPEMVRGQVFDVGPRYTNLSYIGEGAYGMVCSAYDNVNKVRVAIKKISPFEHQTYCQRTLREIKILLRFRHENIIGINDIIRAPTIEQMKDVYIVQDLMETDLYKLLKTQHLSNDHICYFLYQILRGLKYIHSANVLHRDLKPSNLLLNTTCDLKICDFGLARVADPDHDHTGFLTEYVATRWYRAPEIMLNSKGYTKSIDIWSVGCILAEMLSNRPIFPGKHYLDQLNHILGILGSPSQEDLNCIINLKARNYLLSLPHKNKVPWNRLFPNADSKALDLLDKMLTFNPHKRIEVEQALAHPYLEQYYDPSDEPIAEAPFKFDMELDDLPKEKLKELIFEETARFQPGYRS
method_summary: Inhibition of ERK2 at 5 uM ATP
Quick reference: IC50 of the listed items.
Dear colleague, please return just the value in µM, with no unit written.

Worked examples follow.
N[C@H](COc1cnc(Cl)c(-c2ccc3cnccc3c2)c1)Cc1c[nH]c2ccccc12
37
C#Cc1ncc(OC[C@@H](N)Cc2c[nH]c3ccccc23)cc1-c1ccc2cnccc2c1
27.2

# next compound below
Just so you know, measured IC50 for Nc1cc2cc(-c3cncc(OC[C@@H](N)Cc4c[nH]c5ccccc45)c3)ccc2cn1 came out at 1.2
